TGT: Cannabinoid receptor 2 (Homo sapiens)
Sequence (P34972 whole entry): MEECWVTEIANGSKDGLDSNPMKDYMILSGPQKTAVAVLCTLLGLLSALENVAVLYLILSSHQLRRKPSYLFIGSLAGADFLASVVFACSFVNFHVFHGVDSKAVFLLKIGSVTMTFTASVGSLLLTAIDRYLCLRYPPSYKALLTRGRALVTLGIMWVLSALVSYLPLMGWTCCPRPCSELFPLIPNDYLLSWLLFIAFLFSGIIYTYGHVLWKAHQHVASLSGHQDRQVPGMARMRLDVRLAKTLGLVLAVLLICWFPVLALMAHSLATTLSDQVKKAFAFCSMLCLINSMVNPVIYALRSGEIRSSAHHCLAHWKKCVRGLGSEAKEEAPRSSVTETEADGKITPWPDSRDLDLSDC
ASSAY_PROCEDURE: Displacement of [3H]-CP55940 from human recombinant CB2 receptor expressed in CHO cells membrane by scintillation counting
ENDPOINT: pKi
pKi here: minus log base 10 of the concentration, concentration in moles per litre.

> print(dat)
                                   molecule  result
1  CCCCCn1cc(C(=O)NC2C3CC4CC(C3)CC2C4)c(=O)cc1C(C)(C)C (stereo unspecified)    8.02

Continue with the molecule presented below.
Enter reported pKi observed with Cannabinoid receptor 2 (Homo sapiens) for CCCCCn1cc(C(=O)NCC2CC2)c(=O)cc1C(C)(C)C
7.85

###

TGT: Cannabinoid receptor 1 (Homo sapiens, UniProt P21554)
Sequence (P21554 whole entry): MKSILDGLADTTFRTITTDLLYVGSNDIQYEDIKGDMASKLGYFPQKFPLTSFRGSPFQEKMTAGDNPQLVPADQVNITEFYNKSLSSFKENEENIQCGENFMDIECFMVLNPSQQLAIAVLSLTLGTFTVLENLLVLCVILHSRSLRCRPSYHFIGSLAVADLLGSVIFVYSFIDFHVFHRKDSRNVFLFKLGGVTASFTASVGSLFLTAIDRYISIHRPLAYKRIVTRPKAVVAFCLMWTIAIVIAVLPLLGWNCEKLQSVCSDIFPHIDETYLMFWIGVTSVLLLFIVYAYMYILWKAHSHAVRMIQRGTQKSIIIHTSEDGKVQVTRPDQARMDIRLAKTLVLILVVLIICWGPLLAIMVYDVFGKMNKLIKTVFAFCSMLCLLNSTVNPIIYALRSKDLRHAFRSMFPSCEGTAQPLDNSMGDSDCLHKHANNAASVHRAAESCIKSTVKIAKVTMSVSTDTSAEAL
ASSAY_PROCEDURE: Displacement of [3H]-CP55940 from human recombinant CB1 receptor expressed in CHO cells membrane at 1 uM by scintillation counting
Type: cell membranes
ENDPOINT: Activity

> print(dat)
                                   compound  endpoint  result
1  CCCCCn1cc(C(=O)NC23CC4CC(CC(C4)C2)C3)c(=O)c(C2CC2)c1C  Activity   > 60%
2  Cc1cc(=O)c(C(=O)NC23CC4CC(CC(C4)C2)C3)cn1CC1OCCO1  Activity   > 60%
3           CCCCCn1cc(C(=O)NC(C)C)c(=O)cc1C  Activity   > 60%
4  C/C=C\n1cc(C(=O)NC23CC4CC(CC(C4)C2)C3)c(=O)cc1C  Activity   > 60%
5  CCCCCn1cc(C(=O)NC23CC4CC(CC(C4)C2)C3)c(=O)c(-c2ccncc2)c1C  Activity   > 60%

Field request: Activity | item: CCCCCn1cc(C(=O)NCC2CC2)c(=O)cc1C(C)(C)C
> 60%

Field entry: CCCCCn1cc(C(=O)Nc2ccccc2)c(=O)cc1C
> 60%

Field entry: CCCCCn1cc(C(=O)NC(C)C23CC4CC(CC(C4)C2)C3)c(=O)cc1C (racemic)
> 60%

Field entry: CCCCCn1cc(C(=O)NC23CC4CC(CC(C4)C2)C3)c(=O)c(-c2cccc(C#N)c2)c1C
> 60%

Field entry: COCCCn1cc(C(=O)NC23CC4CC(CC(C4)C2)C3)c(=O)cc1C
> 60%

Field entry: CCCCCn1cc(C(=O)NC2CCCCC2)c(=O)cc1C
> 60%

Field entry: CCCCCn1cc(C(=O)NC23CC4CC(CC(C4)C2)C3)c(=O)c(-c2ccc(CC)cc2)c1C
> 60%

Field entry: CCCCCn1cc(C(=O)NC23CC4CC(CC(C4)C2)C3)c(=O)c(-c2ccc(C)cc2)c1C
> 60%

Field entry: CCCCCn1cc(C(=O)NCC2CC2)c(=O)cc1C
> 60%

Field entry: Cc1cc(=O)c(C(=O)NC23CC4CC(CC(C4)C2)C3)cn1CCC1OCCO1
> 60%

###

ASSAY_PROCEDURE: Fraction unbound in human plasma at 37 degC by equilibrium dialysis method
Assay type: ADME, cell-free
ENDPOINT: fraction unbound
Provide a numeric answer; units are not to be included.

> print(dat)
                                 cpd.smiles  result
1  CCCCCn1cc(C(=O)NC23CC4CC(CC(C4)C2)C3)c(=O)c(-c2ccncc2)c1C    0.07

Continue with the compound presented below.
Field request: fraction unbound | item: CCCCCn1cc(C(=O)NC23CC4CC(CC(C4)C2)C3)c(=O)cc1C(C)(C)C
0.01
